- measurementNotes: pKa of amine lipid by TNS fluorescence
- Type: physicochemical
- testContext: probe TNS (6-(p-toluidino)-2-naphthalenesulfonic acid sodium salt), unformulated amine lipid in ethanol, sodium phosphate buffers -9.0
attributeMeasured: pKa

Example cases with answers are listed next.
{"compound": "CCCCCCCCCCOC(=O)CCCCCCCC(=O)OCC(COC(=O)CCCCCCCC(=O)OCCCCCCCCCC)OC(=O)CCC(CCCCCCCC)OC(=O)NCCN(C)CC (stereo not drawn)", "pKa": 6.18}
{"compound": "CCCCC/C=C\\C/C=C\\CCCCCCCC(=O)OCC(COC(=O)CCCCCCC/C=C\\C/C=C\\CCCCC)OC(=O)CCC(CCCCCCCCCCCC)OC(=O)OCCN(C)C (stereo not drawn)", "pKa": "< 5"}

Now consider the entry below.
Problem: Tell me pKa reported for CCCCC/C=C\C/C=C\CCCCCCCC(=O)OCC(COC(=O)CCCCCCC/C=C\C/C=C\CCCCC)OC(=O)CCC(CCCCCCC)OC(=O)NCC1CCCN1C (stereo not drawn)
Solution: 6.44
